molecular target: RhlR (Pseudomonas aeruginosa); construct: expressed in transfected cells; host or cells: E. coli JLD271 (ΔsdiA) with pJN105R2 (arabinose-induced) and pSC11-rhlI*; experiment: E. coli RhlR reporter antagonism assay vs 10 μM BHL (JLD271/pJN105R2/pSC11-rhlI*); type: cell-based, P. aeruginosa
reported_metric: pIC50
Bear in mind: pIC50 is minus log10 of a mol/L concentration; give just that figure.

*Q* Consider the compound shown here: O=C(COc1ccc(I)cc1)NC1CCOC1=O (stereo not drawn) [Compound E22, reference compound] What is its recorded pIC50?
*A* 4.76

*Q* # get_value(readout='pIC50', item= O=C(NC1CCCC1)C1CCC1 )
*A* 4.57

====

molecular target: RhlR (Pseudomonas aeruginosa, UniProt P54292); construct: expressed in transfected cells; host or cells: E. coli JLD271 (ΔsdiA) with pJN105R2 (arabinose-induced) and pSC11-rhlI*; experiment: E. coli RhlR reporter agonism assay (JLD271/pJN105R2/pSC11-rhlI*); assay type: cell-based, P. aeruginosa
Sequence (P54292 whole entry): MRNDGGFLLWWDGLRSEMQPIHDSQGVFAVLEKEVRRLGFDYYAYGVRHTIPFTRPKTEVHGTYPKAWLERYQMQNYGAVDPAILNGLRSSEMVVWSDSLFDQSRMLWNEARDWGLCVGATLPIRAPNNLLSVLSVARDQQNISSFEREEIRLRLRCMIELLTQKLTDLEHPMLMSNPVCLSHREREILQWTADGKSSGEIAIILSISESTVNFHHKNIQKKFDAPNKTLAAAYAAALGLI
reported_metric: pEC50
Bear in mind: pEC50 is minus log10 of a mol/L concentration; give just that figure.

*Q* Value lookup for pEC50; key = CCCCC(=O)N[C@H]1CCOC1=O
*A* 4.97

*Q* Field request: pEC50 | item: CC(C)CC(=O)N[C@H]1CCSC1=O
*A* 6.33

*Q* pEC50 lookup needed for O=C(N[C@H]1CCOC1=O)C1CCC1 , thanks.
*A* 5.75

*Q* Bench note: what pEC50 did CCCC(=O)N[C@H]1CCOC1=O [BHL, N-butanoyl L-homoserine lactone, reference compound] show?
*A* 5.05

*Q* I'd like to know its pEC50. The compound in question is C/C=C\CC(=O)N[C@H]1CCOC1=O
*A* 5.16

*Q* Entry CCC(C)C(=O)N[C@H]1CCOC1=O (stereo partly shown) has what pEC50?
*A* 5.11

*Q* Fill in: pEC50 of CCCC(=O)N[C@H]1CCSC1=O is ___
*A* 5.31

====

molecular target: LasR (Pseudomonas aeruginosa, UniProt P25084); construct: expressed in transfected cells; host or cells: E. coli JLD271 (ΔsdiA) with pJN105L and pSC11; assay: Selectivity of RhlR agonism over LasR agonism (E. coli LasR reporter JLD271/pJN105L/pSC11); assay type: cell-based, P. aeruginosa; settings: tested concentration 10 μm; RhlR % activity divided by LasR % activity; > = negligible activity in LasR reporter
Sequence (P25084 whole entry): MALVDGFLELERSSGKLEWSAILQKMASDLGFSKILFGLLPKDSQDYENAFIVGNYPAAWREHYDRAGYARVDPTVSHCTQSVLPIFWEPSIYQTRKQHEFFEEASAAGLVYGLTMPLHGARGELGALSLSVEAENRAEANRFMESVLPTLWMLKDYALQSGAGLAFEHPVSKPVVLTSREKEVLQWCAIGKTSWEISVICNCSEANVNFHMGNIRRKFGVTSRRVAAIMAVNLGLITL
Marks after values point to notes of the source that are not given here.
reported_metric: Fold selectivity of RhlR agonists over LasR agonism

*Q* Entry under review: CC(C)CC(=O)N[C@H]1CCSC1=O [RN37] . Reported Fold selectivity of RhlR agonists over LasR agonism?
*A* >85^b fold

*Q* Reported Fold selectivity of RhlR agonists over LasR agonism for CC(C)CC(=O)N[C@H]1CCCC1=O [RN36] : what is it?
*A* 105^ fold

*Q* Please look up its Fold selectivity of RhlR agonists over LasR agonism: O=C(N[C@H]1CCCC1=O)C1CCC1 [RN12]
*A* >56^b fold

====

molecular target: RhlR (Pseudomonas aeruginosa, UniProt P54292); construct: expressed in transfected cells; host or cells: E. coli JLD271 (ΔsdiA) with pJN105R2 (arabinose-induced) and pSC11-rhlI*; assay: E. coli RhlR reporter agonism assay (JLD271/pJN105R2/pSC11-rhlI*); type: cell-based, P. aeruginosa; conditions: read-out: Maximum Activation (%)
reported_metric: Emax (%)
Expressed in %, but write only the number.

*Q* Endpoint output: Emax of O=C(N[C@H]1CCOC1=O)C1CCC1 . Value?
*A* 100

*Q* Form field: reported Emax of CC(C)CC(=O)N[C@H]1CCOC1=O
*A* 105

*Q* // lookup Emax for CC(C)C(=O)N[C@H]1CCOC1=O
*A* 95

*Q* Give the measured Emax of CC(C)CC(=O)N[C@H]1CCCC1=O .
*A* 101

*Q* Record request: Emax value, item C/C=C\CC(=O)N[C@H]1CCOC1=O
*A* 80

*Q* Look at this compound and give its reported Emax. O=C(N[C@H]1CCSC1=O)C1CCC1
*A* 106

*Q* Any idea what Emax was measured for CCC(C)C(=O)N[C@H]1CCOC1=O (stereo partly shown) ?
*A* 95

====

biological target: RhlR (Pseudomonas aeruginosa, UniProt P54292); construct: expressed in transfected cells; host or cells: E. coli JLD271 (ΔsdiA) with pJN105R2 (arabinose-induced) and pSC11-rhlI*; experiment: P. aeruginosa RhlR reporter agonism assay (PAO-JP2/prhlI-LVAgfp); assay type: cell-based; conditions: read-out: Maximum Activation (%)
Please respond with reported Emax for every item in the list.
Give your result in % as a bare value.

*Q* Look up Emax: CCCC(=O)N[C@H]1CCSC1=O
*A* 94

*Q* Query (compound): CC(C)CC(=O)N[C@H]1CCSC1=O ; field requested: Emax
*A* 91

*Q* I have this compound here, CC(C)CC(=O)N[C@H]1CCOC1=O , and I need its recorded Emax.
*A* 94

====

Exercise: state measured Fold selectivity of RhlR agonists over LasR agonism for each of the compounds provided.
target: LasR (Pseudomonas aeruginosa); construct: expressed in transfected cells; host or cells: E. coli JLD271 (ΔsdiA) with pJN105L and pSC11; experiment: Selectivity of RhlR agonism over LasR agonism (E. coli LasR reporter JLD271/pJN105L/pSC11); type: cell-based, P. aeruginosa; conditions: tested concentration 10 μm; RhlR % activity divided by LasR % activity; > = negligible activity in LasR reporter
Report as a plain number; the unit fold is understood.

*Q* Which Fold selectivity of RhlR agonists over LasR agonism is listed for CCCC(=O)N[C@H]1CCOC1=O [BHL, N-butanoyl L-homoserine lactone, reference compound] ?
*A* 56

*Q* Can you look up the measured Fold selectivity of RhlR agonists over LasR agonism of CCCC(=O)N[C@H]1CCSC1=O [RN8] for me?
*A* 17

====

experiment: Hydrolytic stability in buffers of varying pH by HPLC; format: physicochemical; conditions: pH 6, 1 mM MES buffer, room temperature
reported_metric: half-life at 50 μM

*Q* // lookup half-life at 50 μM for O=C(COc1ccc(I)cc1)NC1CCOC1=O (centres unmarked) [Compound E22, reference compound]
*A* 7.6 days

*Q* Value lookup for half-life at 50 μM; key = O=C(COc1ccc(I)cc1)N[C@H]1CCSC1=O [RN22]
*A* 44 days

====

target: RhlR (Pseudomonas aeruginosa); construct: expressed in transfected cells; host or cells: E. coli JLD271 (ΔsdiA) with pJN105R2 (arabinose-induced) and pSC11-rhlI*; assay: E. coli RhlR reporter antagonism assay vs 10 μM BHL (JLD271/pJN105R2/pSC11-rhlI*); assay type: cell-based, P. aeruginosa; details: E. coli reporter; relative to activation of 10 μM BHL alone
Please provide measured Maximum Inhibition (%) for the entries that follow.
Number in %, nothing else.

*Q* # query: Maximum Inhibition (%) of entry O=C(COc1ccc(I)cc1)NC1CCCC1
*A* 31

*Q* // query Maximum Inhibition (%) value for entry O=C(COc1ccc(I)cc1)N[C@H]1CCSC1=O
*A* 81

*Q* Dear colleague, I am looking for the recorded Maximum Inhibition (%) of the following compound: O=C(COc1ccc(I)cc1)NC1CCOC1=O (centres unmarked) [Compound E22, reference compound]
*A* 74

*Q* Maximum Inhibition (%) for O=C(NC1CCCC1)C1CCC1 ?
*A* 32

*Q* Which measured Maximum Inhibition (%) value corresponds to O=C(COc1ccc(I)cc1)NCC1CCCO1 (centres unmarked) ?
*A* 56

====

biological target: RhlR (Pseudomonas aeruginosa, UniProt P54292); construct: expressed in transfected cells; host or cells: E. coli JLD271 (ΔsdiA) with pJN105R2 (arabinose-induced) and pSC11-rhlI*; assay: E. coli RhlR reporter antagonism assay vs 10 μM BHL (JLD271/pJN105R2/pSC11-rhlI*); type: cell-based, P. aeruginosa; conditions: read-out: % inhibition (10 μM), compound at 10 μM in the presence of 10 μM BHL; negative = agonism stronger than 10 μM BHL alone
reported_metric: inhibition at 10 µM (%)
Numeric only. Scale: %

*Q* What is its inhibition at 10 µM for RhlR (Pseudomonas aeruginosa, UniProt P54292)? Entry: CCCC(=O)NC1CCCC1
*A* 9

*Q* Find inhibition at 10 µM (RhlR (Pseudomonas aeruginosa, UniProt P54292)) for the entry C=CCC(=O)N[C@H]1CCOC1=O
*A* 6

*Q* Write down the reported inhibition at 10 µM of CCCC(=O)NC1CCOC1 (stereo not shown) , test system: RhlR (Pseudomonas aeruginosa, UniProt P54292).
*A* -5

*Q* What measured inhibition at 10 µM is associated with C#CCCCC(=O)N[C@H]1CCOC1=O on RhlR (Pseudomonas aeruginosa, UniProt P54292)?
*A* -2

*Q* Provide the documented inhibition at 10 µM with RhlR (Pseudomonas aeruginosa, UniProt P54292) as the system for O=C(CC1CC1)N[C@H]1CCOC1=O
*A* -47

*Q* Any idea what inhibition at 10 µM came out for C=CCCCC(=O)N[C@H]1CCOC1=O on RhlR (Pseudomonas aeruginosa, UniProt P54292)?
*A* -4

*Q* Lookup: inhibition at 10 µM / RhlR (Pseudomonas aeruginosa, UniProt P54292) / O=C(COc1ccc(I)cc1)NC1CCCC1
*A* 6

*Q* Param readout = inhibition at 10 µM; param system = RhlR (Pseudomonas aeruginosa, UniProt P54292); param query = O=C(COc1ccc(I)cc1)NCC1CCCO1 (stereo not shown) ; response: value
*A* 6

*Q* Observed inhibition at 10 µM on RhlR (Pseudomonas aeruginosa, UniProt P54292) for CCCC(=O)O[C@H]1CCOC1=O , please.
*A* 4

*Q* Which inhibition at 10 µM is reported with RhlR (Pseudomonas aeruginosa, UniProt P54292) for this entry: CC(C)C(=O)N[C@H]1CCOC1=O ?
*A* -30

*Q* # returns recorded inhibition at 10 µM (system: RhlR (Pseudomonas aeruginosa, UniProt P54292)) for O=C(NC1CCCC1)C1CCC1
*A* 24

*Q* Hi! What's the reported inhibition at 10 µM for CC(C)CC(=O)N[C@H]1CCOC1=O on RhlR (Pseudomonas aeruginosa, UniProt P54292)?
*A* -62

*Q* Observed inhibition at 10 µM on RhlR (Pseudomonas aeruginosa, UniProt P54292) for CCCC(=O)N[C@H]1CCSC1=O , please.
*A* -8
